System: Danio rerio larvae (5 dpf)
experiment: difference in combined optomotor response to red, green and blue moving lines vs DMSO (percentage points); higher = stronger optomotor response than DMSO
measurement_conditions: 10 µM; exposure time 6 h
Okay, here is how we bin by difference: low group (below 0.3), middle group (0.3 to below 6), high group (6 or more)

# count of solved cases: 3
compound | target_desc | group
Cl.N=C(N)NCCC[C@H](N)C(=O)O [L-Arginine (hydrochloride)] | Danio rerio larvae (5 dpf) | middle group
C[C@H](Nc1ncnc2nc[nH]c12)c1cc2cccc(Cl)c2c(=O)n1-c1ccccc1 | Danio rerio larvae (5 dpf) | high group
Cn1cnc2c(F)c(Nc3ccc(Br)cc3F)c(C(=O)NOCCO)cc21 | Danio rerio larvae (5 dpf) | high group

Which category fits this record: CC1=C(CC(=O)O)c2cc(F)ccc2/C1=C\c1ccc([S+](C)[O-])cc1 (stereo not drawn)
low group

Which category fits this record: CC(C)(C)NCC(O)c1ccc(O)c(CO)c1 (stereo not drawn)
middle group
